Target: human SGLT2 (Homo sapiens, UniProt P31639)
Construct: expressed in transfected cells; host or cells: CHOK1 (Chinese hamster ovary) cells, kept under Geneticin selection
Sequence (P31639 whole entry): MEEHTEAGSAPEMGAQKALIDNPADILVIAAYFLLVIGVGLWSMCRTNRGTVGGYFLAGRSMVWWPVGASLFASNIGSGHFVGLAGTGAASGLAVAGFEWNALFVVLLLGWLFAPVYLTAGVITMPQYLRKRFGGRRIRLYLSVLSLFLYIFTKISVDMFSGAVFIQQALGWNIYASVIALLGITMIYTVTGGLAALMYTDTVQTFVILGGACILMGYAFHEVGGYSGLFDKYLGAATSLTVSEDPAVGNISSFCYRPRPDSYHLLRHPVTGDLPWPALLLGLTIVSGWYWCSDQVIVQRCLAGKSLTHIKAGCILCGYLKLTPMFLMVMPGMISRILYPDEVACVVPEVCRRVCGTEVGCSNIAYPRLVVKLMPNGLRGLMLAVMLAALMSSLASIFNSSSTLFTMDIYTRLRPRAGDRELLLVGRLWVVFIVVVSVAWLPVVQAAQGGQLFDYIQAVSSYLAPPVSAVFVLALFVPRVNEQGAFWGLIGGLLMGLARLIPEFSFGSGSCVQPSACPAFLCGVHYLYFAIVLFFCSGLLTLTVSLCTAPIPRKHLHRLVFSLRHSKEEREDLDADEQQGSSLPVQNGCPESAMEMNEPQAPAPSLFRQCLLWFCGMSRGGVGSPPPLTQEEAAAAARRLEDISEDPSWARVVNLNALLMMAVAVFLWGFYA
Test: Assay for SGLT2 inhibition (14C-AMG uptake in CHOK1 cells expressing human SGLT2)
Format: cell-based
Conditions: CHOK1 cells expressing human SGLT2; 14C-AMG uptake, 0.5 mM, 2 hours at 37° C.; read-out: IC50
READOUT: IC50 (nM)
Give just the number in nM; leave the unit off.

CCOc1ccc(Cc2cn([C@@H]3O[C@H](CO)[C@@H](O)[C@H](O)[C@H]3O)c3ccc(F)c(Cl)c23)cc1 [Example 35]; 9.1
OC[C@H]1O[C@@H](n2cc(Cc3ccc(F)cc3)c3c(Cl)cccc32)[C@H](O)[C@@H](O)[C@@H]1O [Example 27]; 16
OC[C@H]1O[C@@H](n2cc(Cc3ccc(Br)cc3)c3c(Cl)cccc32)[C@H](O)[C@@H](O)[C@@H]1O [Example 14]; 8.1
CCOc1ccc(Cc2cn([C@@H]3O[C@H](CO)[C@@H](O)[C@H](O)[C@H]3O)c3cccc(Cl)c23)cc1 [Example 3]; 3.5
CSc1ccc(Cc2cn([C@@H]3O[C@H](CO)[C@@H](O)[C@H](O)[C@H]3O)c3cccc(F)c23)cc1 [Example 10]; 2.4
Cc1cccc2c1c(Cc1ccc(-c3cccs3)s1)cn2[C@@H]1O[C@H](CO)[C@@H](O)[C@H](O)[C@H]1O [Example 51]; 6.1

The record that follows has no IC50 shown yet.
Please give the measured IC50 for this compound: OC[C@H]1O[C@@H](n2cc(Cc3ccc(O)cc3)c3c(Cl)cccc32)[C@H](O)[C@@H](O)[C@@H]1O [Example 46]
2.4
